Values compiled from patent US10738056B2.

- subject-of-test: Human cGAS amino acids 155-522 (Homo sapiens (Human))
- measurement-notes: cGAS biochemical activity assay (ATP remaining, Kinase-Glo Max luminescence)
- conditions-used: human cGAS 155-522, ATP remaining (Kinase-Glo Max); read-out: cGAS IC50
readout-label: IC50

>>> df
                                   compound                           subject_of_test  endpoint_value
0  COc1cccc2oc(-c3c(C(=O)NCC(O)C(F)(F)F)[nH]c4c(-c5ccccc5)c(C(F)(F)F)nn4c3=O)nc12 (centres unmarked) [Compound C1209]  Human cGAS amino acids 155-522 (Homo sapiens (Human))         < 20 µM
1  Cc1[nH]c2c(-c3ccccc3)c(C(F)(F)F)nn2c(=O)c1-c1nc2c(OCC(=O)O)cccc2o1 [Compound C1117]  Human cGAS amino acids 155-522 (Homo sapiens (Human))         < 20 µM
2  Cc1[nH]c2c(-c3ccccc3)c(C(F)(F)F)nn2c(=O)c1C(=O)Nc1ccc(C#N)cc1 [Compound A1015]  Human cGAS amino acids 155-522 (Homo sapiens (Human))    20 to 250 µM
3  Cc1[nH]c2c(-c3ccccc3)c(C(F)(F)F)nn2c(=O)c1C(=O)Nc1ccccc1OC(F)(F)F [Compound A1049]  Human cGAS amino acids 155-522 (Homo sapiens (Human))    20 to 250 µM
4  COc1nc(N)nc2oc(-c3c(C)[nH]c4c(-c5ccccc5)c(C(F)(F)F)nn4c3=O)nc12 [Compound C1174]  Human cGAS amino acids 155-522 (Homo sapiens (Human))         < 20 µM
5  COc1cccc2oc(-c3c(C(=O)NC4CCOCC4)[nH]c4c(-c5ccccc5)c(C(F)(F)F)nn4c3=O)nc12 [Compound C1194]  Human cGAS amino acids 155-522 (Homo sapiens (Human))         < 20 µM
6  Cc1[nH]c2c(-c3ccccc3)c(C(F)(F)F)nn2c(=O)c1-c1nnc(C(N)=O)o1 [Compound D1066]  Human cGAS amino acids 155-522 (Homo sapiens (Human))         < 20 µM
7  CCOc1cccc2oc(-c3c(C)[nH]c4c(-c5ccccc5)c(C(F)(F)F)nn4c3=O)nc12 [Compound C1038]  Human cGAS amino acids 155-522 (Homo sapiens (Human))         < 20 µM

###

- subject-of-test: Human cGAS amino acids 155-522 (Homo sapiens (Human), UniProt Q8N884)
- Sequence (Q8N884 157-522): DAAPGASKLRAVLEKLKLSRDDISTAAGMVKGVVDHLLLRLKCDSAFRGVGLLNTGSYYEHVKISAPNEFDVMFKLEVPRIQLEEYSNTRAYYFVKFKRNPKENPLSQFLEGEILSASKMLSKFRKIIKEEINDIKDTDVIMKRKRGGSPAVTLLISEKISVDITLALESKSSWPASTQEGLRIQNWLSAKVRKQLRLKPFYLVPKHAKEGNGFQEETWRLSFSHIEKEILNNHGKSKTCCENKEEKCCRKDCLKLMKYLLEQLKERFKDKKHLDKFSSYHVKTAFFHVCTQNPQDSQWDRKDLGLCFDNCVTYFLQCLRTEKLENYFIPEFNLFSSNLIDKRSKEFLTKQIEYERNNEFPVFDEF
- measurement-notes: cGAS biochemical activity assay (ATP remaining, Kinase-Glo Max luminescence)
- conditions-used: human cGAS 155-522, ATP remaining (Kinase-Glo Max); read-out: cGAS IC50
Some compounds, each annotated with its measured IC50.
readout-label: IC50

>>> df
                                   compound                           subject_of_test  readout_label  endpoint_value
0  COc1ccc(C)c2oc(-c3c(C)[nH]c4c(-c5ccccc5)c(C(F)(F)F)nn4c3=O)nc12 [Compound C1092]  Human cGAS amino acids 155-522 (Homo sapiens (Human), UniProt Q8N884)           IC50         < 20 µM
1  COCCNC(=O)Cc1c(C)[nH]c2c(-c3ccccc3)c(C(F)(F)F)nn2c1=O [Compound B1003]  Human cGAS amino acids 155-522 (Homo sapiens (Human), UniProt Q8N884)           IC50        > 250 µM
2  COc1ccc(C#N)c2oc(-c3c(C)[nH]c4c(-c5ccccc5)c(C(F)(F)F)nn4c3=O)nc12 [Compound C1100]  Human cGAS amino acids 155-522 (Homo sapiens (Human), UniProt Q8N884)           IC50         < 20 µM
3  COc1ccc(NC(=O)c2c(C)[nH]c3c(-c4ccccc4)c(C(F)(F)F)nn3c2=O)cn1 [Compound A1088]  Human cGAS amino acids 155-522 (Homo sapiens (Human), UniProt Q8N884)           IC50    20 to 250 µM
4  COc1nccc2oc(-c3c(C)[nH]c4c(-c5ccccc5)c(C#N)nn4c3=O)nc12 [Compound C1167]  Human cGAS amino acids 155-522 (Homo sapiens (Human), UniProt Q8N884)           IC50         < 20 µM
5  Cc1[nH]c2c(-c3ccccc3)c(C(F)(F)F)nn2c(=O)c1C(=O)NC1CCN(C)CC1 [Compound A1026]  Human cGAS amino acids 155-522 (Homo sapiens (Human), UniProt Q8N884)           IC50    20 to 250 µM
6  Cc1[nH]c2c(-c3ccccc3)c(C(F)(F)F)nn2c(=O)c1C(=O)Nc1cc(C)n(C)n1 [Compound A1079]  Human cGAS amino acids 155-522 (Homo sapiens (Human), UniProt Q8N884)           IC50         < 20 µM
7  COC(=O)Nc1ccccc1NC(=O)c1c(C)[nH]c2c(-c3ccccc3)c(C(F)(F)F)nn2c1=O [Compound A1038]  Human cGAS amino acids 155-522 (Homo sapiens (Human), UniProt Q8N884)           IC50    20 to 250 µM

###

- subject-of-test: Human cGAS amino acids 155-522 (Homo sapiens (Human))
- measurement-notes: cGAS biochemical activity assay (ATP remaining, Kinase-Glo Max luminescence)
- conditions-used: human cGAS 155-522, ATP remaining (Kinase-Glo Max); read-out: cGAS IC50
pIC50: −log10 of the molar value.
readout-label: pIC50

In [3]: df
Out[3]:
                                   molecule                           subject_of_test  endpoint_value
0  Cc1[nH]c2c(-c3ccccc3)c(C(F)(F)F)nn2c(=O)c1C1=NC(C(=O)O)[C@H](C)O1 (stereo partly shown)  Human cGAS amino acids 155-522 (Homo sapiens (Human))          > 4.70
1  Cc1[nH]c2c(-c3ccccc3)c(C#N)nn2c(=O)c1-c1ccccc1  Human cGAS amino acids 155-522 (Homo sapiens (Human))          > 4.70
2  Cc1[nH]c2c(-c3ccccc3)c(C(F)(F)F)nn2c(=O)c1-c1nc2ncccc2o1  Human cGAS amino acids 155-522 (Homo sapiens (Human))          > 4.70
3  COc1cc(NC(=O)c2c(C)[nH]c3c(-c4ccccc4)c(C(F)(F)F)nn3c2=O)ccn1  Human cGAS amino acids 155-522 (Homo sapiens (Human))    3.60 to 4.70
4  COc1cccc2oc(-c3c(C)[nH]c4c(-c5ccccc5)c(C(F)(F)F)nn4c3=O)nc12  Human cGAS amino acids 155-522 (Homo sapiens (Human))          > 4.70
5  Cc1[nH]c2c(-c3ccccc3)c(C(F)(F)F)nn2c(=O)c1-c1nc(CO)c(C(C)C)o1  Human cGAS amino acids 155-522 (Homo sapiens (Human))          > 4.70
6  Cc1[nH]c2c(-c3ccccc3)c(C(F)(F)F)nn2c(=O)c1C(=O)NS(C)(=O)=O  Human cGAS amino acids 155-522 (Homo sapiens (Human))    3.60 to 4.70

###

The compounds listed here are annotated with their pIC50.
- subject-of-test: Human cGAS amino acids 155-522 (Homo sapiens (Human), UniProt Q8N884)
- measurement-notes: cGAS biochemical activity assay (ATP remaining, Kinase-Glo Max luminescence)
- conditions-used: human cGAS 155-522, ATP remaining (Kinase-Glo Max); read-out: cGAS IC50
pIC50: −log10 of the molar value.
readout-label: pIC50

>>> print(df.to_string())
                   compound_structure_string                           subject_of_test  endpoint_value
 0  COc1cccc2oc(-c3c(C)[nH]c4c(-c5ccccc5)c(C(=O)O)nn4c3=O)nc12  Human cGAS amino acids 155-522 (Homo sapiens (Human), UniProt Q8N884)          < 3.60
 1  COc1ccc(NC(=O)c2c(C)[nH]c3c(-c4ccccc4)c(C(F)(F)F)nn3c2=O)nn1  Human cGAS amino acids 155-522 (Homo sapiens (Human), UniProt Q8N884)          > 4.70
 2  Cc1[nH]c2c(-c3ccccc3)c(C(F)(F)F)nn2c(=O)c1-c1nnc(-c2ccco2)o1  Human cGAS amino acids 155-522 (Homo sapiens (Human), UniProt Q8N884)          < 3.60
 3  COc1cccc2oc(-c3c(-c4cnn(C)c4)[nH]c4c(-c5ccccc5)c(C(F)(F)F)nn4c3=O)nc12  Human cGAS amino acids 155-522 (Homo sapiens (Human), UniProt Q8N884)          > 4.70
 4  COc1cccc2c(-c3c(C)[nH]c4c(-c5ccccc5)c(C(F)(F)F)nn4c3=O)n[nH]c12  Human cGAS amino acids 155-522 (Homo sapiens (Human), UniProt Q8N884)    3.60 to 4.70
 5  COc1cccc2oc(-c3c(C(=O)N[C@H](CO)C(C)C)[nH]c4c(-c5ccccc5)c(C(F)(F)F)nn4c3=O)nc12  Human cGAS amino acids 155-522 (Homo sapiens (Human), UniProt Q8N884)    3.60 to 4.70
 6  COc1cc(N)cc2oc(-c3c(C)[nH]c4c(-c5ccccc5)c(C(F)(F)F)nn4c3=O)nc12  Human cGAS amino acids 155-522 (Homo sapiens (Human), UniProt Q8N884)          > 4.70
 7  COc1cccc2oc(-c3c(CCC(=O)O)[nH]c4c(-c5ccccc5)c(C(F)(F)F)nn4c3=O)nc12  Human cGAS amino acids 155-522 (Homo sapiens (Human), UniProt Q8N884)          > 4.70
 8  Cc1[nH]c2c(-c3ccccc3)c(C(F)(F)F)nn2c(=O)c1C(=O)N[C@H]1CCCC[C@@H]1O  Human cGAS amino acids 155-522 (Homo sapiens (Human), UniProt Q8N884)    3.60 to 4.70
 9  COc1cccc2oc(-c3c(C(=O)N[C@@H](C)CO)[nH]c4c(-c5ccccc5)c(C(F)(F)F)nn4c3=O)nc12  Human cGAS amino acids 155-522 (Homo sapiens (Human), UniProt Q8N884)          > 4.70
10  COc1cccc2oc(-c3c(C(=O)Nc4cn[nH]c4)[nH]c4c(-c5ccccc5)c(C(F)(F)F)nn4c3=O)nc12  Human cGAS amino acids 155-522 (Homo sapiens (Human), UniProt Q8N884)          > 4.70
11  Cc1[nH]c2c(-c3ccccc3)c(C(F)(F)F)nn2c(=O)c1C(=O)Nc1cccc(OC(C)C)c1  Human cGAS amino acids 155-522 (Homo sapiens (Human), UniProt Q8N884)          > 4.70
